System: HOP-62 NSCLC
Assay: NCI tumour cell line growth inhibition, 48 h
PARAMETER: TGI

compound=C=C(C)CCOC(c1ccccc1)(c1ccccc1)c1ccccc1 observed_measurement="> 100 µM"
compound="S=c1sc2c(n1-c1ccccc1)NC=NC2S (stereo unspecified)" observed_measurement="> 100 µM"
compound=N#C/C(=C1/Sc2c(nc[nH]c2=O)N1c1ccccc1)c1nc2ccccc2[nH]1 observed_measurement="> 100 µM"
compound=CN1CC[C@@H](NC(=O)Nc2ccc(C#N)cc2)C[C@@H]1c1nc2ccccc2[nH]1 observed_measurement="> 100 µM"
compound="Nc1n[nH]c2cc(F)c([C@@H]3Nc4ccc5[nH]ncc5c4[C@H]4C5CCC(C5)[C@@H]34)cc12 (stereo partly specified)" observed_measurement="9.12 µM"
compound=Oc1ccc(Cc2cc(Cc3ccc(O)cc3)cc(Cc3ccc(O)cc3)c2)cc1 observed_measurement="> 50 µM"
compound=NS(=O)(=O)c1nnc(NC(=O)Nc2ccc(Cl)c(Cl)c2)s1 observed_measurement="39.7 µM"
compound=O=C(N/N=C/c1ccc(Cl)cc1)c1c(Cl)c(Cl)c(Cl)c(Cl)c1-c1nc2ccccc2[nH]1 observed_measurement="> 100 µM"
compound=COc1cc(-c2ccc3cc(OC)c(OC)c(OC)c3c2)cc(OC)c1OC observed_measurement="75.4 µM"
compound="CCOP(=O)(OCC)C(F)(F)c1ccc(CC(NC(=O)OC(C)(C)C)C(=O)O)cc1 (stereo unspecified)" observed_measurement="> 10 µM"
compound="C(=C(c1ccc(OC2CCCCO2)cc1)c1ccc(OC2CCCCO2)cc1)c1ccccc1 (stereo unspecified)" observed_measurement="2.3 µM"
compound="CC1CN(C)c2ccccc2N=C1NN (stereo unspecified)" observed_measurement="> 100 µM"
compound=COc1ncc(/C=C2\OC(=O)c3ccccc32)c(OC)n1 observed_measurement="66 µM"
compound=Cn1ccc2c3c(Oc4ccc(NC(N)=O)cc4)ccnc3ccc21 observed_measurement="> 100 µM"
compound=CC(=O)NNc1nc(C)c(C(=O)/C=C/c2ccc(NC(C)=O)cc2)s1 observed_measurement="> 100 µM"
compound="N#CC(NCc1cccc(CNC(C#N)c2ccccc2)c1)c1ccccc1 (stereo unspecified)" observed_measurement="> 100 µM"

# credit: PubChem BioAssay (NCI)
